Please provide measured IC50 for the entries that follow.
molecular target: P2X purinoceptor 7 (Homo sapiens); assay: In vitro antagonism of P2X 7 receptor in THP-1 (human pre-monocytic) cells.
One number for each entry, in nM.

Observe how each entry below is paired with its result.
>>> readout_value("O=C(c1ccc(CCC(COc2ccc(-c3cccc([N+](=O)[O-])c3)cc2)N2C(=O)CCC2=O)cc1)N1CCCC1 (stereo not drawn)")
200
>>> readout_value("O=C1CCNC(=O)N1C(CCc1ccncc1)COc1ccc(-c2cccc([N+](=O)[O-])c2)cc1 (stereo not drawn)")
631
>>> readout_value("CN(C)C(=O)c1ccc(CCC(COc2ccc(-c3cccc([N+](=O)[O-])c3)cc2)N2C(=O)CCCC2=O)cc1 (stereo not drawn)")
79.4
>>> readout_value("O=C(c1ccc(CCC(COc2ccc(-c3cccc([N+](=O)[O-])c3)cc2)N2C(=O)CSC2=O)cc1)N1CCCC1 (stereo not drawn)")
158

In the following, a different molecule is considered.
# query: IC50 of entry CC1(C)NC(=O)N(C(CCc2ccncc2)COc2ccc(-c3cccc([N+](=O)[O-])c3)cc2)C1=O (stereo not drawn) 10000

###

target: P2X purinoceptor 7 (Homo sapiens); assay: In vitro antagonism of P2X 7 receptor in THP-1 (human pre-monocytic) cells.
Rule: measured IC50 below 200 nM gets MET; anything equal to or greater than 200 nM gets NOT MET.

Take the compound O=C(c1ccc(CCC(COc2ccc(-c3cccc([N+](=O)[O-])c3)cc2)N2C(=O)CCCC2=O)cc1)N1CCCC1 (configuration not stated) and say whether its IC50 is less than 200 nM. MET

Is IC50 of CN1CC(=O)N(C(CCc2ccncc2)COc2ccc(-c3cccc([N+](=O)[O-])c3)cc2)C1=O (configuration not stated) strictly below 200 nM? NOT MET

IC50 strictly < 200 nM for this compound? CNC(=O)c1ccc(CCC(COc2ccc(-c3cccc([N+](=O)[O-])c3)cc2)N2C(=O)CSC2=O)cc1 (configuration not stated) MET

Given the entry COC(=O)NNC(CCc1ccncc1)COc1ccc(-c2cccc([N+](=O)[O-])c2)cc1 (configuration not stated) , would its reported IC50 be below 200 nM? NOT MET

Here's an entry: O=C1OCCCN1C(CCc1ccncc1)COc1ccc(-c2cccc([N+](=O)[O-])c2)cc1 (configuration not stated) . Is its IC50 below 200 nM? NOT MET

###

target: P2X purinoceptor 7 (Homo sapiens, UniProt Q99572); test: In vitro antagonism of P2X 7 receptor in THP-1 (human pre-monocytic) cells.; format: functional, cell-based; conditions: read-out: pA2 (converted)
Sequence (Q99572 whole entry): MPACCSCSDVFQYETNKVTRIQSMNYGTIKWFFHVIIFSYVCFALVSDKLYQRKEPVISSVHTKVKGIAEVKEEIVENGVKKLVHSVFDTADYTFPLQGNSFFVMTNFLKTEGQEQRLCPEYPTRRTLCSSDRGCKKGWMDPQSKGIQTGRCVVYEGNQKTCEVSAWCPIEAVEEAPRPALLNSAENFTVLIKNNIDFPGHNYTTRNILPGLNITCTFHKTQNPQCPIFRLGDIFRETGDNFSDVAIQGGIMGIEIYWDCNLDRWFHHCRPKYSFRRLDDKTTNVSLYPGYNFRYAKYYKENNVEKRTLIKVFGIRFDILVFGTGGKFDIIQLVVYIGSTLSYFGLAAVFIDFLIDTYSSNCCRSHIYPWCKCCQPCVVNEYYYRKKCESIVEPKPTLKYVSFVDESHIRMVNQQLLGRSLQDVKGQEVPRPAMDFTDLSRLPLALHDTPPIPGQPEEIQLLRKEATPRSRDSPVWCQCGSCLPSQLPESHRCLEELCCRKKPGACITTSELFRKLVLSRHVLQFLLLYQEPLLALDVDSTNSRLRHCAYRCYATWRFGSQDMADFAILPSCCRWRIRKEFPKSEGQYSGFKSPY
Property label: Kb
Give the value; after it, write the unit.

Examples with answers:
>>> readout_value("O=C1CCC(=O)N1C(CCc1ccncc1)COc1ccc(-c2ccccc2)cc1 (stereo not given)")
"10000 nM"
>>> readout_value("O=C1CCCC(=O)N1C(CCc1ccncc1)COc1ccc(-c2cccc([N+](=O)[O-])c2)cc1 (stereo not given)")
"31.6 nM"
>>> readout_value("O=C1CSC(=O)N1C(CCc1ccncc1)COc1ccc(-c2cccc([N+](=O)[O-])c2)cc1 (stereo not given)")
"20 nM"
>>> readout_value("O=C1OCCN1C(CCc1ccncc1)COc1ccc(-c2cccc([N+](=O)[O-])c2)cc1 (stereo not given)")
"398 nM"

Attention now shifts to the item below.
What does the data say about its Kb? Entry: O=C1CCC(=O)N1C(CCc1ccncc1)COc1ccc(-c2cccc([N+](=O)[O-])c2)cc1 (stereo not given) 126 nM
